- Target Desc: Luciferin 4-monooxygenase (Photinus pyralis) (UniProt P08659)
- Sequence (P08659 whole entry, looked up): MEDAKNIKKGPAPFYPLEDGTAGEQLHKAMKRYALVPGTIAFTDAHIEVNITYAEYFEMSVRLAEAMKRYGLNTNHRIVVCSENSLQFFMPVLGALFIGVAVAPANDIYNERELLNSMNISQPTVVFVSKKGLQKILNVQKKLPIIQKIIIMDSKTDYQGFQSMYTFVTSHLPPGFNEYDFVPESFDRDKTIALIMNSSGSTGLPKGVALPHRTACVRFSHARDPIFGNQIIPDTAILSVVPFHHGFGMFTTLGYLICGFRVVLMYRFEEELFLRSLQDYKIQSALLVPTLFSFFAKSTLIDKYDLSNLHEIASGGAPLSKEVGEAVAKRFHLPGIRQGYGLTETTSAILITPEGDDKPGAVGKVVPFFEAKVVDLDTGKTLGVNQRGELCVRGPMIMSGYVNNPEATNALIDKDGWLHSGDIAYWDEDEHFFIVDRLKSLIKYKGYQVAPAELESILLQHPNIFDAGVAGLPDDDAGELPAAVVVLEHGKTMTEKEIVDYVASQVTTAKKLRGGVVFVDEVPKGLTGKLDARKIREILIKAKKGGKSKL
- Test: qHTS assay to identify small molecule inhibitors of firefly luciferase (AID 1224835); note: nearly all actives have a fitted effect of over 25% in size
- Assay Setup: purified P. pyralis luciferase, luminescence inhibition; series mostly up to 115 µM
Inconclusive results are not listed. The source made the active and inactive calls. Calls come from the whole dose curve; as a rule, active = well fitted inhibition curve with a large enough effect in the repeat runs; inconclusive = weak or mixed curves; inactive = flat fitted curve, though single readings scatter.
Return exactly one item of active, inactive

| Compound | Discrete Label |
| --- | --- |
| O=C(Cl)CCl | inactive |
| [O-][Br+2]([O-])O | inactive |

So what was the verdict on C1CN2CCC1CC2 in this test?
inactive

Would you mind doing C#CC(C)(C)O as well?
inactive

Would you mind doing CN1COCN(Cc2cnc(Cl)s2)/C1=N\[N+](=O)[O-] as well?
inactive

---

- Test: A CellTox Green Cytotoxicity Assay to monitor cytotoxicity in HepG2 cells - 40 hour (AID 1224879); note: nearly all actives have a fitted effect of over 40% in size
- Assay Setup: CellTox Green fluorescence; series mostly up to 76.8 µM
Inconclusive results are not listed. Calls of active or inactive are those of the source. Calls follow the shape of the dose curve; as a rule, active = well fitted activation curve with a large enough effect in the repeat runs; inconclusive = weak or mixed curves; inactive = flat fitted curve, though single readings scatter.
Experimental Readout: outcome

Answered cases to consult:
| Molecule | Reading |
| --- | --- |
| ClCCCCl | inactive |
| COc1ccc(CN2CCNCC2)c(OC)c1OC | inactive |
| C#CCOC(=O)/C=C(C)/C=C/CC(C)CCCC(C)C (stereo not drawn) | inactive |
| [O-][Br+2]([O-])O | inactive |

# lookup: outcome of CN1C(=O)COc2c(C(=O)NC3CN4CCC3CC4)cc(Cl)cc21 (stereo not drawn)
inactive

Would you mind doing CN(C)CCN(C)C as well?
inactive

Would you mind doing CNC(=O)Oc1cc(C)c(N(C)C)c(C)c1 as well?
inactive

Would you mind doing CCN1CCCC1CNC(=O)C(O)(c1ccccc1)c1ccccc1 (stereo not drawn) as well?
inactive

---

- Target Desc: Cytochrome P450 3A4 (Homo sapiens) (UniProt P08684)
- Sequence (P08684 whole entry, looked up): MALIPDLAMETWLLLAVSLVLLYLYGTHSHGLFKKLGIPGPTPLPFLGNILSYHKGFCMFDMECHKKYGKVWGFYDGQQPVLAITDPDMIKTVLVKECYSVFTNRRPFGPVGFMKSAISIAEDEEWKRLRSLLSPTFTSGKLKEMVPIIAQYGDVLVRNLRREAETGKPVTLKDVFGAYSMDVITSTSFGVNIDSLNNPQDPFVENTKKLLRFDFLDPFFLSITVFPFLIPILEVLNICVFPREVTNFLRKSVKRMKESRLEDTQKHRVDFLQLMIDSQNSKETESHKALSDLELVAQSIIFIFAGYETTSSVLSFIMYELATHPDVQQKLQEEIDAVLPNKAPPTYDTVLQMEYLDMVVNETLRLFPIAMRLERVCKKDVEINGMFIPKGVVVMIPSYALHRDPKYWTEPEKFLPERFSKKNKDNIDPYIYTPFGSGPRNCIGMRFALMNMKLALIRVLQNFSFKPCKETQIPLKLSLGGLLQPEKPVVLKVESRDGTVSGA
- Test: Cytochrome P450 Family 3 Subfamily A Member 4 (CYP3A4) small molecule antagonists: luciferase reporter qHTS assay (AID 1671201); note: nearly all actives have a fitted effect of over 50% in size
- Assay Setup: P450-Glo CYP3A4 enzyme, luciferin luminescence, 1 h; series mostly up to 115 µM
Inconclusive results are not listed. The source made the active and inactive calls. The call rests on the fitted dose curve; in most records, active means well fitted inhibition curve with a large enough effect in the repeat runs; inconclusive means weak or mixed curves; inactive means no such curve, though single readings can be large or run the other way.
Return exactly one item of 1 (yes) (active), 0 (no) (inactive)

These recorded examples may help you get a feel for the data.
| Molecule | Discrete Label |
| --- | --- |
| [P]#[In] | 0 (no) |
| S=C=S | 0 (no) |
| O=C(Cl)c1ccccc1 | 0 (no) |
| O=c1[nH]c2ccccc2o1 | 0 (no) |
| CCCCS(=O)(=O)Cl | 0 (no) |
| COc1ccc(C=O)cc1O | 0 (no) |
| CN(C)C(=O)Oc1cc(OC(=O)N(C)C)cc(C(O)CNC(C)(C)C)c1 (stereo unspecified) | 0 (no) |
| ClCCN1CCCC1 | 0 (no) |

Please turn your attention to the following entry.
So what was the verdict on COc1cc(CCN)cc(OC)c1OC in this test?
0 (no)

---

- Target Desc: Nuclear receptor subfamily 1 group I member 2 (Homo sapiens) (UniProt O75469)
- Test: CYP3A4 induction through human pregnane X receptor (PXR) by small molecules, qHTS assay (AID 1346984); note: nearly all actives have a fitted effect of over 40% in size
- Assay Setup: DPX-2 HepG2 PXR, CYP3A4-luciferin luminescence, 24 h; series mostly up to 46.1 µM
Inconclusive results are not listed. The source made the active and inactive calls. The call rests on the fitted dose curve; in most records, active means well fitted activation curve with a large enough effect in the repeat runs; inconclusive means weak or mixed curves; inactive means no such curve, though single readings can be large or run the other way.
Return exactly one item of t (active), f (inactive)

| Compound | Discrete Label |
| --- | --- |
| CCOC(=O)CC(SP(=S)(OC)OC)C(=O)OCC (stereo not given) | f |

So what was the verdict on Cn1c(CCCC(=O)O)nc2cc(N(CCCl)CCCl)ccc21 in this test?
f

Would you mind doing COc1cccc([C@@]2(O)CCCC[C@@H]2CN(C)C)c1 as well?
f

Would you mind doing NC(=O)CS(=O)C(c1ccccc1)c1ccccc1 (stereo not given) as well?
f

Would you mind doing S=C=S as well?
f

Would you mind doing CC1NCCOC1c1ccccc1 (stereo not given) as well?
f
